Hey, just so you know, these numbers are from ChEMBL document CHEMBL3507680.

Reported cytotoxicity at 70.5 h values are given for each entry in this list.
Test: Human HepG2 cell viability assay in 384 well format
Format: toxicity, cell-based
Set-up: dose 125 nL, time 70.5 hour; concentration not given beside the values
Conditions: HepG2 cells, read-out: Inhibition
valueKind: cytotoxicity at 70.5 h (%)

INSERT INTO measurements (compound, unitofmeasurement, reportedvalue) VALUES
  ('COc1ccc(OC)c(CN2CCC(c3cc(O)nc(C)n3)C2)c1 (stereo unspecified)', '%', 22.5),
  ('CCc1nccn1C1CCCN(C(=O)c2cnn3ccc(C)nc23)C1 (stereo unspecified)', '%', -9.27),
  ('CN(C)c1ccc(C(=O)Nc2cnn(Cc3ccccn3)c2)cc1', '%', -9.41),
  ('Cn1nnc2c1C(COCc1ccccn1)CN(C(=O)c1cccs1)C2 (stereo unspecified)', '%', 5.64),
  ('CCNC(=O)[C@@H]1C[C@H](N)CN1C(=O)CCc1ccc(C)c(C)c1', '%', -3.41),
  ('Cc1nc(C(=O)N(C)[C@@H]2CCC[C@@H](Oc3ccccc3)[C@@H]2O)co1', '%', 6.12);

----------
Experiment: Human HepG2 cell viability assay in 384 well format
Type: toxicity, cell-based
Design: dose 125 nL, time 70.5 hour; concentration not given beside the values
Conditions: HepG2 cells, read-out: Inhibition
valueKind: cytotoxicity at 70.5 h (%)

INSERT INTO assay_data (compound, valuekind, reportedvalue) VALUES
  ('N#CCCN(C(=O)CCc1cccnc1)c1ccc2c(c1)OCCO2', 'cytotoxicity at 70.5 h', -11.1),
  ('O=C(c1ccc(C2CCCO2)s1)N1CCOCC1 (configuration not stated)', 'cytotoxicity at 70.5 h', -5.89),
  ('COc1ccc(C2=CCN(C(=O)C3CCN(C)C(=O)C3)CC2)cc1 (configuration not stated)', 'cytotoxicity at 70.5 h', -8.88),
  ('CCN1CCC12CCN(C(=O)c1cc(C)on1)C2 (configuration not stated)', 'cytotoxicity at 70.5 h', -2.64),
  ('CCC(OC)C(=O)NCC1CCN(c2cnn(C)c(=O)c2)CC1 (configuration not stated)', 'cytotoxicity at 70.5 h', -3.42),
  ('CC(=O)Nc1ccc(OCc2noc(C(=O)N3CCCC3)n2)cc1', 'cytotoxicity at 70.5 h', -14.2),
  ('CN(C)c1ccc(C(=O)N2Cc3cnc(C(C)(C)C)nc3C2)cc1', 'cytotoxicity at 70.5 h', -2.91),
  ('CCN(C)Cc1nc(-c2ccccc2NS(C)(=O)=O)oc1C', 'cytotoxicity at 70.5 h', -10.5),
  ('CN(C)CC(=O)N1CCc2ncnc(-c3ccoc3)c2CC1', 'cytotoxicity at 70.5 h', -0.0529),
  ('CC1(C)CC(CN2CCC3(CCC(=O)N(C4CCC4)C3)CC2)CCO1 (configuration not stated)', 'cytotoxicity at 70.5 h', -9.04),
  ('Cc1cnn(CCCOc2ccc3c(c2)OCO3)c1', 'cytotoxicity at 70.5 h', -0.603),
  ('CN(C)Cc1nnc(C2CCCN(c3nc(C(N)=O)cs3)C2)n1C (configuration not stated)', 'cytotoxicity at 70.5 h', -7.8);

----------
Assay: Human HepG2 cell viability assay in 384 well format
Assay type: toxicity, cell-based
Set-up: dose 125 nL, time 70.5 hour; concentration not given beside the values
Details: HepG2 cells, read-out: Inhibition
valueKind: cytotoxicity at 70.5 h (%)

INSERT INTO assay_data (molecule, reportedvalue) VALUES
  ('Cc1ccc(C(=O)N(C)Cc2c(C)noc2C)c(=O)[nH]1', -0.278),
  ('CNc1oc(-c2ccc(OC)c(S(=O)(=O)N3CCCC3)c2)nc1C#N', -21.8),
  ('N[C@H]1CC[C@@H](Nc2nccc(CCC(F)(F)F)n2)CC1', -2.71),
  ('Cc1ccc(NC(=O)NC(C)c2nc[nH]n2)s1 (stereo unspecified)', -8.03),
  ('COc1cccc2c1OCC(CNc1ccc(C)nn1)C2 (stereo unspecified)', -3.11),
  ('O=C(Cc1ccccn1)N1CCN(C(=O)c2cccc3[nH]ncc23)CC1', 1.92),
  ('c1cncc(CN2CC(Cc3nccc4cc[nH]c34)C2)c1', -3.48),
  ('Cc1nc(CN2CCCC(NCc3nc4ccccc4s3)C2)no1 (stereo unspecified)', -17.4),
  ('O=C(O)CNc1cc(-c2cc(C3CC3)ncn2)c2cc[nH]c2n1', 0.922),
  ('NC(=O)CN1C(=O)CO[C@H]2CN(Cc3ccc(F)c(F)c3)C[C@H]21', -3.9),
  ('CC1=N[C@@]2(CC[C@@H]3CN(S(=O)(=O)CC(C)C)C[C@@H]32)C(=O)N1CC(C)C', -5.23);

----------
Assay: Human HepG2 cell viability assay in 384 well format
Type: toxicity, cell-based
Parameters: dose 125 nL, time 70.5 hour; concentration not given beside the values
Settings: HepG2 cells, read-out: Inhibition
Reported cytotoxicity at 70.5 h values are given for each entry in this list.
valueKind: cytotoxicity at 70.5 h (%)

INSERT INTO results (compoundstring, valuekind, reportedvalue) VALUES
  ('CC(=O)Nc1cccc(CNC(=O)N(C)Cc2ccccc2)c1', 'cytotoxicity at 70.5 h', -8.01),
  ('O=C(NCCNC(=O)c1scnc1Cl)c1ccccc1Cl', 'cytotoxicity at 70.5 h', -8.93),
  ('CC(C)Sc1ccc(N2CCN(Cc3ccccn3)CC2)nn1', 'cytotoxicity at 70.5 h', -12.7),
  ('Cc1ccc2cc(CN(C)Cc3ccncn3)c(=O)[nH]c2c1', 'cytotoxicity at 70.5 h', -13.2),
  ('CN1CCO[C@@H]2CN(C(=O)Cc3cccs3)CC[C@@H]2C1', 'cytotoxicity at 70.5 h', -2.05),
  ('Cc1ccccc1-c1noc(-c2ccc(N(C)C3CCOCC3)nc2)n1', 'cytotoxicity at 70.5 h', -2.11);

----------
Experiment: Human HepG2 cell viability assay in 384 well format
Format: toxicity, cell-based
Parameters: dose 125 nL, time 70.5 hour; concentration not given beside the values
Conditions: HepG2 cells, read-out: Inhibition
Reported cytotoxicity at 70.5 h values are given for each entry in this list.
valueKind: cytotoxicity at 70.5 h (%)

INSERT INTO assay_data (compound, reportedvalue) VALUES
  ('CC(C)NC(=O)N1CCCC2(CCN(c3ccccc3)C2=O)C1 (centres undefined)', -7.73),
  ('O=S(=O)(c1cc(F)ccc1F)n1cc(Cl)cn1', -4.29),
  ('CC(C)C(=O)Nc1cccc(OCC(=O)NCc2ccccc2F)c1', -5.29),
  ('Cc1nc(C(=O)N2CCCC2c2c(C)nn(C)c2Cl)ccc1C#N (centres undefined)', -4.22),
  ('CN(Cc1cccc(OC(F)(F)F)c1)C(=O)c1cnsn1', -3.78),
  ('CCC(C)(C)N(C)CCOc1cccc(S(C)(=O)=O)c1', -3.09),
  ('Cc1cc(CN(C)C(=O)NC2CCN(S(C)(=O)=O)CC2)no1', -9.54),
  ('Cc1cnn(CC2CCCCN2Cc2nnc(-c3ccco3)o2)c1 (centres undefined)', -4.33),
  ('Cc1cc(C)n(CC2CN(CC(=O)NC3CCOCC3)CCO2)n1 (centres undefined)', 15.9),
  ('Cc1cccc(C)c1OCC(=O)N1CCOCC1c1ncon1 (centres undefined)', -2.55),
  ('CC(Cn1cc(Cl)cn1)C(=O)Nc1ccc(CN2CCCCCC2)cc1 (centres undefined)', 18.9),
  ('CCNC(=O)c1ccnc(CC2COc3c(cccc3OC)C2)c1 (centres undefined)', -38.4),
  ('O=C(c1ccc[nH]1)N1CCCn2c(CNC3CCC3)nnc2C1', -4.17),
  ('COCc1nc(CN2C(=O)OC[C@@H]2C(C)C)no1', -6.26),
  ('COCCN1CCN(CC(=O)N(C)Cc2ccc(F)cc2)CC1C (centres undefined)', 23.3),
  ('CNc1ncc(C(=O)N2CCOC(C(=O)NC3CCCC3)C2)cn1 (centres undefined)', -9.73),
  ('CCn1ncc2c1CCCC2NCc1ccc(OC)cc1OC (centres undefined)', -4.5),
  ('CC(C)n1ncc2c1NC(=O)CC21C(=O)Nc2c(Cl)cccc21 (centres undefined)', -5.46),
  ('Cc1cc(C)cc(OCCN2CCn3c(C)nnc3C2)c1', -4.98),
  ('O=C(NCCn1cccc1)C1CCCN(C2CCCC2)C1 (centres undefined)', 7.15),
  ('COC(=O)CCC(=O)N(C/C=C/c1ccccc1)CCO', 23.1),
  ('COC[C@@H]1CC[C@H]2[C@H](CCN2S(=O)(=O)c2ccc(OC)cc2)O1', -6.4),
  ('O=C(N1CCCC1)N1CCc2onc(COc3cccnc3)c2C1', -3.27),
  ('Cc1ccccc1CNC(=O)CN1CCCC(Cc2nccn2C)C1 (centres undefined)', -1.13);
